result.type: melting point

Q: Report melting point for CS(=O)(=O)c1ccc(-c2nn3c(-c4ccccc4)coc3c2-c2ccc(F)cc2)cc1 [Example 37] please.
A: 151 to 154 °C

Q: What do we get for Cc1c(C#N)oc2c(-c3ccc(F)cc3)c(-c3ccc(S(C)(=O)=O)cc3)nn12 [Example 54] ?
A: 236 to 238 °C

Q: What do we get for CS(=O)(=O)c1ccc(-c2nn3c(-c4ccccc4)c(-c4ccccc4)oc3c2-c2ccc(F)cc2)cc1 [Example 38] ?
A: 228 to 229 °C

Q: What do we get for CCn1nc(OCC(=O)C(C)(C)C)c(-c2ccc(S(C)(=O)=O)cc2)c1-c1ccc(F)cc1 [Example 78] ?
A: 63 to 66 °C

Q: What do we get for CC(C)(C)C(=O)COc1nn(CC=C(Cl)Cl)c(-c2ccc(S(C)(=O)=O)cc2)c1-c1ccc(F)cc1 [Example 26] ?
A: 156 to 158 °C

Q: What do we get for CS(=O)(=O)c1ccc(-c2nn3c(C4C5CC6CC(C5)CC4C6)coc3c2-c2ccc(F)cc2)cc1 (stereo not shown) [Example 39] ?
A: 128 to 131 °C

Q: What do we get for CC(C)(C)C(=O)COc1nn(CC#N)c(-c2ccc(S(C)(=O)=O)cc2)c1-c1ccc(F)cc1 [Example 28] ?
A: 156 to 159 °C

Q: What do we get for CC(C)n1nc(OCC(=O)c2ccc(F)cc2)c(-c2ccc(F)cc2)c1-c1ccc(S(C)(=O)=O)cc1 [Example 19] ?
A: 184 to 185 °C

Q: What do we get for CC(=O)n1nc(OCC(=O)C(C)(C)C)c(-c2ccccc2)c1-c1ccc(S(C)(=O)=O)cc1 [Example 32] ?
A: 189 to 191 °C

Q: What do we get for CS(=O)(=O)c1ccc(-c2c(-c3ccc(F)cc3)c(OCC(=O)c3cccs3)nn2CC(=O)c2cccs2)cc1 [Example 20A] ?
A: 136 to 138 °C

Q: What do we get for CCc1coc2c(-c3ccc(S(C)(=O)=O)cc3)c(-c3ccc(F)cc3)nn12 [Example 76] ?
A: 205 to 208 °C

Q: What do we get for CCn1nc(OC2CSCCC2=O)c(-c2ccc(F)cc2)c1-c1ccc(S(C)(=O)=O)cc1 (stereo not shown) [Example 24] ?
A: 210 to 211 °C

Q: What do we get for CS(=O)(=O)c1ccc(-c2nn3c4c(oc3c2-c2ccc(F)cc2)COCC4)cc1 [Example 52] ?
A: 200 to 201 °C

Q: What do we get for CS(=O)(=O)c1ccc(-c2c(OCC(=O)c3ccc(F)cc3)nn(CC(=O)c3ccc(F)cc3)c2-c2ccc(F)cc2)cc1 [Example 75] ?
A: 191 to 193 °C

Q: What do we get for Cc1c(C#N)oc2c(-c3ccc(F)cc3)c(-c3ccc(S(N)(=O)=O)cc3)nn12 [Example 59] ?
A: 231 to 232 °C

Q: What do we get for CCn1nc(OCC(=O)C(C)(C)C)c(-c2ccccc2)c1-c1ccc(S(C)(=O)=O)cc1 [Example 33] ?
A: 158 to 161 °C

Q: What do we get for Cc1oc2c(-c3ccc(F)cc3)c(-c3ccc(S(C)(=O)=O)cc3)nn2c1-c1ccccc1 [Example 41] ?
A: 234 to 236 °C

Q: What do we get for CS(=O)(=O)c1ccc(-c2nn3c4c(oc3c2-c2ccc(F)cc2)CSCC4)cc1 [Example 53] ?
A: 178 to 180 °C

Q: What do we get for CS(=O)(=O)c1ccc(-c2c(-c3ccc(F)cc3)c(=O)n3n2Cc2c(Cl)cccc2-3)cc1 [Example 65] ?
A: 237 to 240 °C

Q: What do we get for CS(=O)(=O)c1ccc(-c2nn3c(c2-c2ccc(F)cc2)OCCCC3)cc1 [Example 2] ?
A: 167 to 168 °C

Q: What do we get for Cc1oc2c(-c3ccc(F)cc3)c(-c3ccc(S(C)(=O)=O)cc3)nn2c1-c1cccs1 [Example 44] ?
A: 240 to 241 °C

Q: What do we get for CCn1nc(OC2COCCC2=O)c(-c2ccc(F)cc2)c1-c1ccc(S(C)(=O)=O)cc1 (stereo not shown) [Example 23] ?
A: 181 to 182 °C

Q: What do we get for CCn1nc(OCC(=O)C(C)(C)C)c(-c2ccc(F)cc2)c1-c1ccc(S(C)(=O)=O)cc1 [Example 27] ?
A: 144 to 146 °C

Q: What do we get for CCn1nc(OCC(=O)c2ccc(F)cc2)c(-c2ccc(F)cc2)c1-c1ccc(OC)cc1 [Example 18] ?
A: 170 to 171 °C

Q: What do we get for CS(=O)(=O)c1ccc(-c2nn3c(c2-c2ccc(F)cc2)OCCC3)cc1 [Example 1] ?
A: 198 to 200 °C

Q: What do we get for CS(=O)(=O)c1ccc(-c2c(-c3ccc(F)cc3)c(OCC(=O)c3ccc(F)cc3)nn2CC(=O)c2ccc(F)cc2)cc1 [Example 13] ?
A: 194 to 196 °C

Q: What do we get for Cc1c(-c2ccc(F)cc2)oc2c(-c3ccc(S(C)(=O)=O)cc3)c(-c3ccc(F)cc3)nn12 [Example 74] ?
A: 289 to 291 °C

Q: What do we get for CC(C)(C)C(=O)COc1nn(CC(=O)C(C)(C)C)c(-c2ccc(S(C)(=O)=O)cc2)c1-c1ccc(F)cc1 [Example 25] ?
A: 180 to 182 °C

All values here come from patent US6472416B1.
